Data provenance is the supplement of paper PMC8728848.

# tgt: Fuc(b1-3)GlcNAc
# measurement_notes: glycan array binding signal (z-score within array); higher = stronger binding
# assay_setup: glycan notation: IUPAC condensed, linker removed
The full list was thinned out, with the strongest signals kept by preference.
Known glycan array binding signal (z-score) of a selection of binders
endpoint_name: glycan array binding signal (z-score)

binder	reported_value
SSR2 (Sclerotium rolfsii) (protein) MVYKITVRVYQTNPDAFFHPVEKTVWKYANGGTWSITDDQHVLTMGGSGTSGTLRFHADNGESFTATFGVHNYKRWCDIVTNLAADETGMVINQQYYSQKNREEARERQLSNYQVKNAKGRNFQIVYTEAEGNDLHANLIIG	-0.269
Fap1 (Streptococcus parasanguis) (protein) KATSKGTEEKQDSVRENLDKMISEAEVLNDMAARKLITLDAEQQLELMKSLVATQSQLEATKNLIGDPNATVADLQIAYTTLGNNTQALGNELIKLNPNGQIYAVLNNTEASRAATLRSTTTGTKTTFTISDFSNGGTQYYWAGGNANNLKNPISSISAVYDSATGKISWTVEYDPTTILKSPALKTLKTYTGIYIDTSSDSKLSTPTNVLIDGAATNPVTNFYGNGSKGIEYVSKGTTKGVTKHTITFDTAFSGRANDLADLEIKMLAATTLSDPHFYEDGSKGNYGRYNGQTAPYVIANDSGTAIGGYQVSGVNADSIPSDTT	0.144
GH98CBM (Clostridium perfringens) (protein) EVYALEESRDVYLSDLDWLNATHGDDTKSKIVQKNHPFTPGNNNQSTKISLKMEDGSISEFEKGLGTIAGSPSTITYDISGAGVTKFFSYLGIDRSANPINEQYAKVDKIEVVVDGKVIYSTINQFPNGLTYETPAIKVDLNIPENAKRLQLKSYAGEKTWGDEVVYADAKFTAKGDFVN	0.118
GH98CBM51-1 (Streptococcus pneumoniae) (protein) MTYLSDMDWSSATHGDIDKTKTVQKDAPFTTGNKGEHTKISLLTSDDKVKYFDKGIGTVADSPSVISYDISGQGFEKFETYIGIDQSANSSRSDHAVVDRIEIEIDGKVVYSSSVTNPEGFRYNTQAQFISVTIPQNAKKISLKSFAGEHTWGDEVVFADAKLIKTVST	-0.193
Epa21 (Candida glabrata) (protein) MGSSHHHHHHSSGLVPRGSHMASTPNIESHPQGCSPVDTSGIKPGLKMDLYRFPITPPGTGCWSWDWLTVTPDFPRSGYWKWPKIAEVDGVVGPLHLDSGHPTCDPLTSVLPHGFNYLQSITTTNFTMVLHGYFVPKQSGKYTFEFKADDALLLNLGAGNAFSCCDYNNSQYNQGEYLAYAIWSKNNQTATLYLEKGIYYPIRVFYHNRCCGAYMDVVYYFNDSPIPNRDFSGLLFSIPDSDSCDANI	-1.01
PLU (Photorhabdus luminiscence) (protein) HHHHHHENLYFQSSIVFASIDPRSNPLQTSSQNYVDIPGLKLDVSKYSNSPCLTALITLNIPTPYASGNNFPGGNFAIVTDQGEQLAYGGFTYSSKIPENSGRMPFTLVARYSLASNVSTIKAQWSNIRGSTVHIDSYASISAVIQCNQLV	-0.329
